Overview of reported ED50 across a group of compounds:
# Tested on: E. coli #311
# TEST DETAILS: In vivo activity (oral, iv; ED50) against E. coli in mice
# RUN CONDITIONS: Escherichia coli; single oral dose (SOD); read-out: ED50 E. coli #311 SOD

Answered cases to consult:
| STRUCTURE SMILES | TARGET OR TEST SYSTEM | ED50 |
| --- | --- | --- |
| CN(C)c1cc(NC(=O)CN(C(=O)OCOC(=O)CC2CCCC2)C(C)(C)C)c(O)c2c1C[C@H]1C[C@H]3[C@H](N(C)C)C(O)=C(C(N)=O)C(=O)[C@@]3(O)C(O)=C1C2=O | E. coli #311 | > 32 mg/kg |
| CC(C)CC(=O)OCOC(=O)N(CC(=O)Nc1cc(N(C)C)c2c(c1O)C(=O)C1=C(O)[C@]3(O)C(=O)C(C(N)=O)=C(O)[C@@H](N(C)C)[C@@H]3C[C@@H]1C2)C(C)(C)C | E. coli #311 | 46.9 mg/kg |

So, CC(C)COC(=O)N(CC(=O)Nc1cc(N(C)C)c2c(c1O)C(=O)C1=C(O)[C@]3(O)C(=O)C(C(N)=O)=C(O)[C@@H](N(C)C)[C@@H]3C[C@@H]1C2)C(C)(C)C ? Its ED50 was > 32 mg/kg

So, CCCCN(CC(=O)Nc1cc(N(C)C)c2c(c1O)C(=O)C1=C(O)[C@]3(O)C(=O)C(C(N)=O)=C(O)[C@@H](N(C)C)[C@@H]3C[C@@H]1C2)C(=O)OCOC(=O)c1ccc(F)cc1 ? Its ED50 was > 32 mg/kg

So, CN(C)c1cc(NC(=O)CN(C(=O)OCOC(=O)c2ccc(C(C)(C)C)cc2)C(C)(C)C)c(O)c2c1C[C@H]1C[C@H]3[C@H](N(C)C)C(O)=C(C(N)=O)C(=O)[C@@]3(O)C(O)=C1C2=O ? Its ED50 was 60.4 mg/kg

So, CN(C)c1cc(NC(=O)CN(C(=O)OCOC(=O)C(c2ccccc2)c2ccccc2)C(C)(C)C)c(O)c2c1C[C@H]1C[C@H]3[C@H](N(C)C)C(O)=C(C(N)=O)C(=O)[C@@]3(O)C(O)=C1C2=O ? Its ED50 was > 32 mg/kg

So, CN(C)c1cc(NC(=O)CN(C(=O)OCOC(=O)c2ccc(C(F)(F)F)cc2)C(C)(C)C)c(O)c2c1C[C@H]1C[C@H]3[C@H](N(C)C)C(O)=C(C(N)=O)C(=O)[C@@]3(O)C(O)=C1C2=O ? Its ED50 was 32 mg/kg

So, CCCCC(=O)OCOC(=O)N(CC(=O)Nc1cc(N(C)C)c2c(c1O)C(=O)C1=C(O)[C@]3(O)C(=O)C(C(N)=O)=C(O)[C@@H](N(C)C)[C@@H]3C[C@@H]1C2)C(C)(C)C ? Its ED50 was > 32 mg/kg

So, CCCCCCCOc1ccc(C(=O)OCOC(=O)N(CC(=O)Nc2cc(N(C)C)c3c(c2O)C(=O)C2=C(O)[C@]4(O)C(=O)C(C(N)=O)=C(O)[C@@H](N(C)C)[C@@H]4C[C@@H]2C3)C(C)(C)C)cc1 ? Its ED50 was > 32 mg/kg
